TEST DESCRIPTION: Picotamide salt stability, degradation determined by HPLC
Where a name gives a salt, the structure may show the parent alone.
MEASURED QUANTITY: Degradation (%)

| MOLECULE | READOUT NUMBER |
| --- | --- |
| CC(=O)O [Acetate] | 0.6 |

(A) Br [hydrobromide]
(B) COc1ccc(C(=O)NCc2cccnc2)cc1C(=O)NCc1cccnc1 [hydrochloride]
(C) COc1ccc(C(=O)NCc2cccnc2)cc1C(=O)NCc1cccnc1 [hydrochloride (anhydrous)]
(D) O=S(=O)(O)O [sulfate]
Exercise: # sort list by recorded Degradation, greatest to least Sort and list the labels as requested.
Solution: A, B, D, C
